Give TGI for every item shown.
# Tested on: HCC-2998 colon
# Experiment Summary: NCI tumour cell line growth inhibition, 48 h

Cc1ccc(C)c(NC(=O)C(=O)C2C(=O)C3=C(CC2(C)C)Nc2ccccc2S3)c1 (stereo unspecified); > 100 µM

Batch of 6 compounds: report TGI for each.
1. COc1c2c(c(OC)c3c1c(=O)c1ccccc1n3C)OCO2
2. NC(=S)/N=C/c1c(O)c2ccccc2oc1=O
3. O=C(c1ccccc1)c1ccc(C(c2c(O)c3ccccc3oc2=O)c2c(O)c3ccccc3oc2=O)cc1
4. S=CN1CCCCC1
5. CC(C(=O)N1C(=O)N(C(=O)C(C)C(O)c2ccccc2)C(c2ccccc2)C1c1ccccc1)C(O)c1ccccc1 (stereo unspecified)
6. CCCN1C(=O)C/C(=C\C(C)=O)Nc2ccccc21

Reply:
1. > 100 µM
2. > 100 µM
3. 50.4 µM
4. > 100 µM
5. > 100 µM
6. > 100 µM

Batch of 3 compounds: report TGI for each.
1. Clc1ccc(-c2nn3c(CCCCCCCCc4nnc5sc(-c6ccc(Cl)cc6)nn45)nnc3s2)cc1
2. Cc1ccc(NC(c2ccccc2)c2ccc3cccnc3c2O)cc1 (stereo unspecified)
3. Cc1cc(-c2ccc(C(=O)O)[nH]2)on1

Reply:
["> 100 µM", "> 100 µM", "> 100 µM"]

Query: Enter recorded TGI with HCC-2998 colon for CNc1ccccc1C(=O)N/N=C/C=C/c1ccccc1 here.
Reply: 36.3 µM

====

Give TGI for every item shown.
# Test system: MOLT-4 leukemia
# Experiment Summary: NCI tumour cell line growth inhibition, 48 h

COc1ccc2c(c1)C(N)CC2=O (stereo not given); > 100 µM
O=C(Cc1nc2ccccc2s1)C(=O)Nc1ccc(Cl)cc1; > 100 µM
Cn1cc(C(=O)c2nccc3c2cnc2ccccc23)ccc1=O; > 100 µM
CN1CCCN2CCN(C)CCN(CC1)CC2; > 100 µM

Query: Please look at this molecule and report its TGI: COc1cc2oc(=O)cc(C)c2cc1[N+](=O)[O-]
Reply: 60.9 µM

====

Give TGI for every item shown.
# System: K-562 leukemia
# Experiment Summary: NCI tumour cell line growth inhibition, 48 h

See these solved cases before continuing.
CC1=C2C(O)C(C(C)C(=O)NCC(C)C)CCC2(C)C=CC1=O (configuration not stated); > 100 µM
CCCCCC(CN1CCOCC1)C(=O)/C=C/c1ccccc1 (configuration not stated); 5.85 µM
O=S(=O)([O-])[O-].[OH3+].[OH3+].[OH3+].[Ru+2].c1ccccc1; > 100 µM
CC(=O)N=C(N=Nc1c(O)[nH]c2ccc(C)cc12)NC(C)=O; > 100 µM
COC(=O)C1(C)C=C(Nc2ccccc2)C(=O)N1c1ccccc1 (configuration not stated); > 100 µM
O=C1C=CC(=O)c2c1ccc1c3ccccc3n(-c3ccccn3)c21; 51.1 µM

Batch of 8 molecules: report TGI for each.
1. OCCN(CCO)N=Nc1ccc(-c2nc3ccccc3[nH]2)cc1
2. CCN(CC)C(=S)SS(=O)(=O)c1ccccc1C(=O)O
3. CCN1C(=O)C/C(=C\C(C)=O)Nc2ccccc21
4. COc1c(CC=C(C)C)c(O)c(C(CC(C)C)c2c(O)c(C(C)=O)c(O)c3c2OC(C(C)(C)O)C3)c(O)c1C(C)=O (configuration not stated)
5. Cn1c(=O)oc2cc(C(=O)CSC(=S)N3CCCCCC3)ccc21
6. O=P(c1ccccc1)(c1ccccc1)C1CC=C(c2ccccc2)C2(CCCC2)C1 (configuration not stated)
7. O=C(Nc1ccc(Cl)c(C(F)(F)F)c1)C(=O)C(C(=O)/C=C/c1ccccc1)C1OC(=O)c2ccccc21 (configuration not stated)
8. COc1ccc2[nH]c(CCNC(=O)c3cc([N+](=O)[O-])cc([N+](=O)[O-])c3)cc2c1

Reply:
["> 100 µM", "> 100 µM", "> 100 µM", "> 12.5 µM", "> 100 µM", "> 100 µM", "> 100 µM", "> 100 µM"]
